B1: REST corepressor 3, residues 87 to 134; numbered along this chain, Q9P2K3 (parent)
chain: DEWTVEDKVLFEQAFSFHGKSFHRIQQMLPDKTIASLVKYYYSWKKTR

Variants of: B1
protocolText: abundance fitness (aPCA) (normalised: wild type 0, dead -1); higher = more abundant; growth selection in yeast, the domain comes from the species named
conditionDescription: Homo sapiens
Collected abundance fitness values appear next to each entry.
quantityName: abundance fitness

variantdescriptor=S21C quantityname="abundance fitness" experimentalvalue=0.164
variantdescriptor=V5I quantityname="abundance fitness" experimentalvalue=-0.316
variantdescriptor=E2G quantityname="abundance fitness" experimentalvalue=0.037
variantdescriptor=K32N quantityname="abundance fitness" experimentalvalue=-0.776
variantdescriptor=Y41A quantityname="abundance fitness" experimentalvalue=-0.817
variantdescriptor=E12S quantityname="abundance fitness" experimentalvalue=-0.822
variantdescriptor=Q26V quantityname="abundance fitness" experimentalvalue=-0.692
variantdescriptor=Q26G quantityname="abundance fitness" experimentalvalue=-0.757
variantdescriptor=A35Y quantityname="abundance fitness" experimentalvalue=-0.451
variantdescriptor=L37G quantityname="abundance fitness" experimentalvalue=-0.835
variantdescriptor=L29W quantityname="abundance fitness" experimentalvalue=-0.932
variantdescriptor=K8R quantityname="abundance fitness" experimentalvalue=-0.434
variantdescriptor=K32Y quantityname="abundance fitness" experimentalvalue=-0.885
variantdescriptor=R48E quantityname="abundance fitness" experimentalvalue=0.016
variantdescriptor=I25H quantityname="abundance fitness" experimentalvalue=-0.692
variantdescriptor=E6T quantityname="abundance fitness" experimentalvalue=-0.323
variantdescriptor=A35C quantityname="abundance fitness" experimentalvalue=-0.401
variantdescriptor=H18G quantityname="abundance fitness" experimentalvalue=-0.764
variantdescriptor=I34G quantityname="abundance fitness" experimentalvalue=-0.767
variantdescriptor=E2T quantityname="abundance fitness" experimentalvalue=-0.302
variantdescriptor=T4R quantityname="abundance fitness" experimentalvalue=-0.634
variantdescriptor=K39W quantityname="abundance fitness" experimentalvalue=-0.67
